Entry source: PubChem BioAssay (NCATS)

- ASSAY REMARKS: qHTS for Inhibitors of Plasmodium falciparum (7G8) proliferation (AID 504316); further: nearly all actives have a fitted effect of over 65% in size
- EXPERIMENTAL SETUP: P. falciparum 7G8 in erythrocytes, SYBR Green DNA, 72 h; series mostly up to 6.7 µM
Inconclusive results are not listed. The source made the active and inactive calls. The call rests on the fitted dose curve; in most records, active means well fitted inhibition curve with a large enough effect; inconclusive means small, poorly fitted or top-dose-only effect; inactive means flat fitted curve, though single readings scatter.
Just give me one of these, please: yes for active, no for inactive

MOLECULE | GROUP
CC#CCN1c2ccccc2[C@]23CCC(=O)N(Cc4ccco4)C2=NC(C(=O)OC)=C(C(=O)OC)[C@H]13 | yes

For COC(=O)C1=C(C)N(Cc2ccccc2)C(=S)NC1CCc1ccccc1 (stereo not drawn) , which call appears in the assay record?
no

For CC(C)OCCCN1C=C2C(=O)C(C)(OC(=O)C3CCCC3)C(=O)C=C2C=C1c1ccsc1 (stereo not drawn) , which call appears in the assay record?
no

For COC1=C[C@H](C(=O)NCCNC(C)=O)[C@@]2(C)Cc3ccccc3[C@@H]2CC1=O , which call appears in the assay record?
no
